B1: SOAT1 (parent)
chain: VYYIFERLCAPLFRNIKQEPFSAR

# Variants of: B1
# test_description: protein stability index of a GFP-peptide fusion (GPS, HEK-293T) (PSI 1-6); higher = more stable;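 also: lentivirally expressed fusions sorted by FACS into six bins by GFP to DsRed ratio, PSI derived from sequencing read proportions per bin multiplied by bin number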
# condition_summary: c terminus: a fixed tail appended
// protein stability index lookup, one value per entry
metric: protein stability index

| mutation_key | observed_result |
| --- | --- |
| Y3D | 1.45 |
| E19M | 1.88 |
| Q18R | 2.62 |
| Y3P | 2.12 |
| K17R | 2.04 |
| R7H | 2.62 |
| Y3M | 1.77 |
| Q18H | 3.42 |
| L12C | 2.21 |
| A10L | 3.17 |
| R14Y | 1.87 |
| Y2S | 1.87 |
| L12M | 2.71 |
| Y3I | 3 |
| V1P | 1.32 |
| F13S | 2.09 |
| K17D | 1.76 |
| S22I | 3.73 |
| F21R | 2.74 |
| S22N | 2.3 |
| P11S | 1.57 |
| Y3V | 3.21 |
| C9R | 3.16 |
| P20S | 1.36 |
| F5M | 1.9 |
| S22A | 2.65 |
| R24H | 2.48 |
| I4M | 3.78 |
| Y3E | 1.5 |
| Y2G | 1.89 |
| E19G | 2.86 |
| L8K | 3.25 |
| V1S | 2.13 |
| A23K | 2.41 |
| Y2F | 2.86 |
| F5P | 2.6 |
| R7Y | 2.98 |
| Y2H | 2.26 |
| Y2P | 1.44 |
| P11C | 1.09 |
| R14T | 3.18 |
| F13P | 3.2 |
| F5A | 1.68 |
| L12G | 2.59 |
| Y2W | 2.26 |
| K17V | 3.1 |
| N15R | 2 |
| I4Y | 2.11 |
| P11G | 2.08 |
| L8E | 3.97 |
| I4G | 1.71 |
| I16T | 1.58 |
| A10H | 3.56 |
| V1M | 2.28 |
| F21V | 2.97 |
| E19Q | 3.17 |
| F21L | 1.7 |
| E6F | 3.18 |
| P20K | 1.88 |
| P11W | 2.77 |
| E19F | 1.58 |
| E6Y | 2.53 |
| E19L | 1.52 |
